Numbers sourced from ChEMBL document CHEMBL1157407.

// values below are reported EC50
test system: HEp-2; experiment: Cytotoxicity against human Hep2 cells after 72 hrs; type: functional; settings: HEp-2, 72 h, read-out: ED50 (the source's name)
QUANTITY_NAME: EC50

>>> endpoint_result("CCn1cc(C(=O)O)c(=O)c2cc(F)c(N3CCNCC3)cc21")
"> 20 µg/mL"
>>> endpoint_result("CCCCC[C@H]1CCCCCCCCCC(=O)O[C@H]2[C@H](O[C@H]3[C@H](O1)O[C@H](CO)[C@@H](O)[C@@H]3O)O[C@@H](C)[C@H](O[C@@H]1O[C@@H](C)[C@H](O[C@@H]3O[C@@H](C)[C@H](OC(=O)[C@@H](C)CC)[C@@H](O)[C@H]3O)[C@@H](O[C@@H]3O[C@@H](C)[C@H](O)[C@@H](O)[C@H]3O)[C@H]1OC(=O)[C@@H](C)CC)[C@H]2O")
"14.2 µg/mL"
>>> endpoint_result("CCCCC[C@H]1CCCCCCCCCC(=O)O[C@H]2[C@@H](O)[C@H](O[C@H]3[C@H](O1)O[C@H](C)[C@H](O)[C@@H]3O)O[C@@H](C)[C@@H]2O[C@@H]1O[C@@H](C)[C@H](O[C@@H]2O[C@@H](C)[C@H](OC(=O)[C@@H](C)CC)[C@@H](O)[C@H]2O)[C@@H](O[C@@H]2O[C@H](CO)[C@@H](O)[C@H](O)[C@H]2O)[C@H]1OC(=O)[C@@H](C)CC")
"> 20 µg/mL"

----------
system: HEp-2; experiment: Cytotoxicity against human Hep2 cells after 72 hrs; type: functional; conditions: HEp-2, 72 h, read-out: ED50 (the source's name)
# Lookup of reported EC50 keyed by entry
QUANTITY_NAME: EC50

>>> endpoint_result("CCCCC[C@H]1CCCCCCCCCC(=O)O[C@H]2[C@H](O[C@H]3[C@H](O1)O[C@H](C)[C@H](O)[C@@H]3O)O[C@@H](C)[C@H](O[C@@H]1O[C@@H](C)[C@H](O[C@@H]3O[C@@H](C)[C@H](O)[C@@H](O)[C@H]3O)[C@@H](O[C@@H]3O[C@@H](C)[C@H](O)[C@@H](O)[C@H]3O)[C@H]1OC(=O)[C@@H](C)CC)[C@H]2O")
"> 20 µg/mL"
>>> endpoint_result("CCCCC[C@H]1CCCCCCCCCC(=O)O[C@H]2[C@H](O[C@H]3[C@H](O1)O[C@H](C)[C@H](O)[C@@H]3O)O[C@@H](C)[C@H](O[C@@H]1O[C@@H](C)[C@H](O[C@@H]3O[C@@H](C)[C@H](OC(=O)C(C)C)[C@@H](O)[C@H]3O)[C@@H](O[C@@H]3O[C@@H](C)[C@H](O)[C@@H](O)[C@H]3O)[C@H]1OC(=O)[C@@H](C)CC)[C@H]2O")
"> 20 µg/mL"
>>> endpoint_result("CCCCC[C@H]1CCCCCCCCCC(=O)O[C@H]2[C@@H](O)[C@H](O[C@H]3[C@H](O1)O[C@H](C)[C@H](O)[C@@H]3O)O[C@@H](C)[C@@H]2O[C@@H]1O[C@@H](C)[C@H](O[C@@H]2O[C@@H](C)[C@H](OC(=O)[C@@H](C)CC)[C@@H](O)[C@H]2O)[C@@H](O[C@@H]2O[C@@H](C)[C@H](O)[C@@H](O)[C@H]2O)[C@H]1OC(=O)CCCCCC[C@H](O)CCCC")
"> 20 µg/mL"
>>> endpoint_result("CCCCC[C@H]1CCCCCCCCCC(=O)O[C@H]2[C@H](O[C@H]3[C@H](O1)O[C@H](C)[C@H](O)[C@@H]3O)O[C@@H](C)[C@H](O[C@@H]1O[C@@H](C)[C@H](O[C@@H]3O[C@@H](C)[C@H](OC(=O)[C@@H](C)CC)[C@@H](O)[C@H]3O)[C@@H](O[C@@H]3O[C@H](CO)[C@@H](O)[C@H](O)[C@H]3O)[C@H]1OC(=O)[C@@H](C)CC)[C@H]2O")
"4 µg/mL"
>>> endpoint_result("CC[C@]1(O)C[C@@H]2CN(CCc3c([nH]c4ccccc34)[C@@](C(=O)OC)(c3cc4c(cc3OC)N(C)[C@H]3[C@@](O)(C(=O)OC)[C@H](OC(C)=O)[C@]5(CC)C=CCN6CC[C@]43[C@@H]65)C2)C1")
"> 20 µg/mL"
>>> endpoint_result("COC(=O)[C@H]1[C@H]2C[C@@H]3c4[nH]c5cc(OC)ccc5c4CCN3C[C@H]2C[C@@H](OC(=O)c2cc(OC)c(OC)c(OC)c2)[C@@H]1OC")
"> 20 µg/mL"

----------
test system: HEp-2; assay: Cytotoxicity against human Hep2 cells after 72 hrs; assay type: functional; settings: HEp-2, 72 h, read-out: ED50 (the source's name)
QUANTITY_NAME: EC50

>>> endpoint_result("CCCCC[C@H]1CCCCCCCCCC(=O)O[C@H]2[C@H](O[C@H]3[C@H](O1)O[C@H](CO)[C@@H](O)[C@@H]3O)O[C@@H](C)[C@H](O[C@@H]1O[C@@H](C)[C@H](O[C@@H]3O[C@@H](C)[C@H](OC(=O)C(C)C)[C@@H](O)[C@H]3O)[C@@H](O[C@@H]3O[C@@H](C)[C@H](O)[C@@H](O)[C@H]3O)[C@H]1OC(=O)[C@@H](C)CC)[C@H]2O")
"> 20 µg/mL"
